Tested on: FES
TEST CONDITIONS: concentration: 1 μM, replicates: in singlicate; n = 1;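 further: KINOMEscan kinase panel screen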
READOUT TYPE: %Inh (%)
The reply should contain only the number, in %.

Example results:
Value of measured %Inh for the entry `CN1CCN(Cc2cccc(-c3ccc4c(Nc5ccc(Oc6ccccc6)cc5)ccnc4c3)c2)CC1` : 4

# %Inh (molecule: `Cn1cc(-c2ccc3c(c2)CCN3C(=O)Cc2cccc(Cl)c2)c2c(N)ncnc21` ) is 0

For reference, reported %Inh for `Cl.NC(=O)c1cccc(Nc2nccc(Nc3ccc(Oc4c(Cl)cccc4Cl)c(Cl)c3)n2)c1` stands at 0

Memo: `Cn1cc(-c2ccc3c(c2)CCN3C(=O)Cc2cccc(F)c2)c2c(N)ncnc21` , reported %Inh: 0

Memo: `Cn1cc(-c2[nH]c3cc(NC(=O)[C@H](N)C4CCCCC4)cc4c3c2C=NNC4=O)cn1` , reported %Inh: 0

// recorded %Inh for `O=C(Nc1n[nH]c2nc(-c3ccc(O)cc3)ccc12)C1CC1` : 0

Now take the following molecule into account.
Query `Cl.c1ccc(-c2ccc3c(Nc4ccc5[nH]ccc5c4)ccnc3c2)nc1` yields %Inh of 0

----------
Each entry below lists one item and its recorded %Inh value.
Test system: PRKR
Construct: gene EIF2AK2
TEST CONDITIONS: concentration: 1 μM, replicates: in singlicate; n = 1
Response body: numeric value in %, unit text excluded.

Sample answers from the record:
Memo: COc1cc(Nc2nccc(N3CCC(NC(=O)c4cc5ccccc5s4)C3)n2)cc(OC)c1OC (centres unmarked) [GSK1379760] , reported %Inh: 8

Notebook: O=C(Nc1ccccc1F)NC1CCN(c2ccnc(Nc3ccc(F)cc3)n2)CC1 [GSK1379800] , %Inh read as 0

Input CCS(=O)(=O)c1ccc(OC)c(Nc2nccc(-c3c(-c4cccc(NC(=O)c5c(F)cccc5F)c4)nn4ncccc34)n2)c1 [GSK326180] . Output %Inh: 0

Further cases:
The recorded %Inh for Clc1ccc(-c2nn3ncccc3c2-c2ccnc(Nc3ccc4c(c3)OCCO4)n2)cc1 [GW829116] is 0

Per the record, O=C(Nc1n[nH]c2cc(-c3ccoc3)ccc12)C1CC1 [SB-738481] has %Inh of 0

Form field %Inh, entry `COc1cc2c(cc1OCCN1CCNCC1)ncc1c3ccc(C#N)cc3[nH]c21` : 9

// %Inh value for CN(C)Cc1ccc(-c2ccc3c(Nc4ccc(Oc5ccccn5)cc4)ccnc3c2)o1 [GW567148] : 0

NCCCC(NC(=O)c1cc(Br)c(-c2ccnc3[nH]ccc23)s1)c1ccccc1.O=C(O)C(F)(F)F.O=C(O)C(F)(F)F (centres unmarked) [GSK1287544] has a reported %Inh of 0

----------
System: PIK3CD
TEST CONDITIONS: concentration: 1 μM, replicates: in singlicate; n = 1
Quick reference: %Inh of the listed items.
Numeric answer only, unit % assumed.

# count of solved cases: 8
Summary for this compound, `O=C(O)C(F)(F)F.O=C(O)C(F)(F)F.O=c1[nH]ccc2nc(N[C@@H]3CCCNC3)nc(Nc3ccc(S(=O)(=O)N4CCOCC4)cc3)c12` : %Inh is 0

Entry `COCCOCCOc1cc2ncc3c4ccc(C#N)cc4[nH]c3c2cc1OC` — recorded %Inh = 0

Record COc1cc(Nc2nccc(N3CCC(NC(=O)Nc4cccc(C(C)=O)c4)C3)n2)cc(OC)c1OC (stereo not shown) . Reported %Inh: 46

Reported %Inh ( Cl.Cl.NCC(NC(=O)c1cc(-c2ccccc2)c(-c2ccnc3[nH]ccc23)s1)c1ccccc1 (stereo not shown) ) = 0

# %Inh (compound: `Cc1ccc(F)c(C(=O)Nc2cccc(-c3nn4ccccc4c3-c3ccnc(Nc4cccc(F)c4)n3)c2)c1F` ) is 0

Value of %Inh reported for the compound Cc1ccc(C)c(NC(=O)NC2CCN(c3ccnc(Nc4ccc(F)cc4)n3)C2)c1 (stereo not shown) is 8

So for `COc1ccc(-c2coc3ccc(-c4nnc(SCc5ccc(OC)c(C(F)(F)F)c5)o4)cc23)cc1` , the logged %Inh turned out to be 11

Recorded %Inh (compound `O=C(Nc1ccccc1F)NC1CCN(c2ccnc(Nc3ccc(F)cc3)n2)CC1` ): 0

Continuing:
Entry under test: `Cc1occc1-c1ncc(OC[C@@H](N)Cc2c[nH]c3ccccc23)cc1-c1ccc2[nH]nc(C)c2c1.O=C(O)C(F)(F)F` . Its %Inh was 0

The compound listed as `CC(C)(C)c1ccc2nccc(Nc3cccc(O)c3)c2c1` shows %Inh equal to 3

Reported %Inh of `O=C(Nc1n[nH]c2nc(-c3ccc(O)cc3)ccc12)C1CC1` : 0

Form field %Inh, entry `CN(c1ccc(NC(=O)Nc2cc(C(F)(F)F)ccc2F)cc1)c1ccnc(Nc2ccc(S(N)(=O)=O)cc2)n1` : 30

%Inh reading for `O=C(Nc1cccc(-c2nn3ncccc3c2-c2ccnc(Nc3ccccc3)n2)c1)c1c(F)cccc1F` : 0

%Inh for `CCn1c(-c2nonc2N)nc2c(C#CC(C)(C)O)ncc(OCCCCN)c21.O=C(O)C(F)(F)F.O=C(O)C(F)(F)F` is 0

Kindly note the recorded %Inh for `CCS(=O)(=O)c1ccc(OC)c(Nc2nccc(-c3c(-c4cccc(NC(=O)c5c(F)cccc5F)c4)nn4ncccc34)n2)c1` , which is 0

%Inh in this record for `Cc1cccc(NC(=O)Nc2ccc(Oc3ncnc4ccn(C)c34)cc2)c1` : 0

----------
Test system: NEK2
TEST CONDITIONS: concentration: 1 μM, replicates: in singlicate; n = 1
READOUT TYPE: %Inh (%)
Write the number in % without appending the unit.

Use the examples below as a reference point.
For this compound ( `COC(=O)Nc1nc2cc(Oc3ccc(NC(=O)Nc4cc(C(F)(F)F)ccc4F)cn3)ccc2[nH]1.Cl.Cl` ), measured %Inh is 0

What the record says about `Cc1ccc(C(=O)N2CC[C@@H](O)C2)cc1-n1c(C)cc(OCc2ccc(F)cc2F)c(Br)c1=O` : %Inh is 0

Others:
The compound `Cn1cc(-c2ccc3c(c2)CCN3C(=O)Cc2cccc(Cl)c2)c2c(N)ncnc21` showed %Inh equal to 66

The compound `COc1cccc(-c2ccc3c(NC(=O)C4CC4)n[nH]c3n2)c1` showed %Inh equal to 0

----------
System: p38-gamma
Construct: gene MAPK12
TEST CONDITIONS: concentration: 1 μM, replicates: in singlicate; n = 1
Could you label it 1 (yes) if measured %Inh is 10% or higher, and 0 (no) otherwise?

Tell me whether %Inh is at least 10% here: COc1cccc(C2=C(Nc3ccc(Cl)c(C(=O)O)c3)C(=O)NC2=O)c1 [SB-390769]
1 (yes)

Identify whether the reported %Inh of the following compound is 10% or greater: Cl.c1ccc(-c2ccc3c(Nc4ccc5[nH]ncc5c4)ccnc3c2)nc1 [GW440137]
1 (yes)

Check the entry c1ccc(Oc2ccc(Nc3ccnc4cc(-c5ccc(CNCCN6CCOCC6)o5)ccc34)cc2)nc1 [GW567145] : does %Inh equal or exceed 10%?
0 (no)

Would you say COc1cccc(NC(=O)NC2CCN(c3ccnc(Nc4cc(OC)c(OC)c(OC)c4)n3)C2)c1 (centres unmarked) [GSK1379763] shows %Inh at minimum 10%?
0 (no)

Given the entry CN(C)Cc1ccc(-c2ccc3c(Nc4ccc(Oc5ccccn5)cc4)ccnc3c2)o1 [GW567148] , answer whether its %Inh meets or surpasses 10%.
0 (no)

----------
Test system: ARK5
Construct: gene NUAK1
TEST CONDITIONS: concentration: 1 μM, replicates: in singlicate; n = 1
READOUT TYPE: %Inh
For clarity, give the value followed by its unit.

Solved cases (6 shown):
Looking up COC(=O)Nc1nc2ccc(Oc3ccc(NC(=O)Nc4cc(C(F)(F)F)ccc4F)cc3)cc2n1C.Cl [GW692089] , I see its %Inh listed as 16%

Entry CCn1c(-c2nonc2N)nc2c(C#CC(C)(C)O)ncc(OCCCCN)c21.O=C(O)C(F)(F)F.O=C(O)C(F)(F)F [GSK507274] — recorded %Inh = 50%

// %Inh value for CN(c1ccc(NC(=O)Nc2cc(C(F)(F)F)ccc2F)cc1)c1ccnc(Nc2ccc(S(N)(=O)=O)cc2)n1 [GW809893] : 1%

Item: Nc1ncnc2c1nc(-c1ccccc1)n2-c1ccccc1 [SKF-97293] | %Inh: 0%

// %Inh value for Oc1cc(Nc2ccnc3cc(I)ccc23)ccc1F [GW552771] : 18%

Record summary for CSc1cccc2c(-c3ccncn3)c(-c3ccc(F)cc3)nn12 [GW514786] : reported %Inh = 12%

Others:
Kindly note the recorded %Inh for Cc1ccc(F)c(C(=O)Nc2cccc(-c3nn4ccccc4c3-c3ccnc(Nc4cccc(F)c4)n3)c2)c1F [GSK361061] , which is 20%

Value of %Inh reported for the compound CN(C)S(=O)(=O)c1cc(-c2ccc3nccc(-c4cccc(S(N)(=O)=O)c4)c3c2)cnc1N [GSK1669921] is 11%

%Inh recorded for this compound, CN1CCN(Cc2cccc(-c3ccc4c(Nc5ccc(Oc6ccccc6)cc5)ccnc4c3)c2)CC1 [GW578342] , is 0%
